- Protocol text: Ability to inhibit [3H]-SCH- 23390 binding to Dopamine receptor D1 of canine striatal membranes
Measurement kind: pKd
Scale explanation: pKd corresponds to minus log10 of a concentration expressed in moles per litre.

In: Item under review: `CN1CCc2cc(I)c(O)cc2[C@H](c2ccc(N=[N+]=[N-])cc2)C1` . Reported pKd?
Out: 9.55

* * *

- Protocol text: Ability to inhibit [3H]-SCH- 23390 binding to Dopamine receptor D1 of canine striatal membranes
Measurement kind: pKi
Scale explanation: pKi corresponds to minus log10 of a concentration expressed in moles per litre.

In: Item under review: `CN1CCc2cc(I)c(O)cc2[C@@H](c2ccc(N=[N+]=[N-])cc2)C1` . Reported pKi?
Out: 7.55
